// data source = ChEMBL document CHEMBL3137667

Kindly state Hepatotoxicity (moderate) for each of the entries shown.
# SETTINGS: human, serum;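 also: human clinical chemistry: moderate when serum ALT or AST reaches 6× upper normal limit or alkaline phosphatase 1.7×, value counts indexed literature references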
Number only, please.

Q: Data request, read-out Hepatotoxicity (moderate), for NC(=O)OC[C@@H]1[C@H](NC(=O)/C(=N\OCC(=O)O)c2csc(N)n2)C(=O)N1S(=O)(=O)O
A: 24

Q: Data request, read-out Hepatotoxicity (moderate), for O[C@H]1[C@H]2[C@H](O)CCCN2C[C@H]1O
A: 2

Q: Data request, read-out Hepatotoxicity (moderate), for COc1cccc2c1C(=O)c1c(O)c3c(c(O)c1C2=O)C[C@@](O)(C(=O)CO)C[C@@H]3O[C@H]1C[C@H](N)[C@H](O[C@@H]2CCCCO2)[C@H](C)O1
A: 1

Q: Data request, read-out Hepatotoxicity (moderate), for CC(C)N(CCC(C(N)=O)(c1ccccc1)c1ccccn1)C(C)C (configuration not stated) [DISOPYRAMIDE]
A: 1

Q: Data request, read-out Hepatotoxicity (moderate), for CN(C)CCC=C1c2ccccc2C=Cc2ccccc21
A: 1

Q: Data request, read-out Hepatotoxicity (moderate), for O=C(O)c1nn(Cc2ccc(Cl)cc2Cl)c2ccccc12
A: 4

Q: Data request, read-out Hepatotoxicity (moderate), for CC(=O)N[C@H]1[C@H]([C@H](O)[C@H](O)CO)OC(C(=O)O)=C[C@@H]1N=C(N)N
A: 2

Q: Data request, read-out Hepatotoxicity (moderate), for Cc1cn([C@H]2C[C@H](F)[C@@H](CO)O2)c(=O)[nH]c1=O
A: 0

Q: Data request, read-out Hepatotoxicity (moderate), for CC(C)=CCC/C(C)=C/CC/C(C)=C/CCC(=O)OC/C=C(\C)CCC=C(C)C [GEFARNATE]
A: 1

Q: Data request, read-out Hepatotoxicity (moderate), for Cc1c(Cl)cccc1Nc1ccccc1C(=O)O
A: 0

Q: Data request, read-out Hepatotoxicity (moderate), for CCCCC1=NC2(CCCC2)C(=O)N1Cc1ccc(-c2ccccc2-c2nnn[nH]2)cc1
A: 2

Q: Data request, read-out Hepatotoxicity (moderate), for O=c1[nH]c2ccccc2n1CCCN1CCC(n2c(=O)[nH]c3cc(Cl)ccc32)CC1
A: 0

Q: Data request, read-out Hepatotoxicity (moderate), for O=C(N[C@H](CO)[C@H](O)c1ccc([N+](=O)[O-])cc1)C(Cl)Cl
A: 1

Q: Data request, read-out Hepatotoxicity (moderate), for CC(C)c1nc(N(C)S(C)(=O)=O)nc(-c2ccc(F)cc2)c1/C=C/[C@@H](O)C[C@@H](O)CC(=O)O
A: 0

Q: Data request, read-out Hepatotoxicity (moderate), for OCCN1CCN(CCCN2c3ccccc3C=Cc3ccccc32)CC1
A: 0

Q: Data request, read-out Hepatotoxicity (moderate), for CC(=O)N[C@@H](CS)C(=O)O
A: 0

Q: Data request, read-out Hepatotoxicity (moderate), for NCC(CC(=O)O)c1ccc(Cl)cc1 (configuration not stated)
A: 1

Q: Data request, read-out Hepatotoxicity (moderate), for CO/N=C(\C(=O)N[C@@H]1C(=O)N2C(C(=O)OCOC(=O)C(C)(C)C)=C(/C=C\c3scnc3C)CS[C@H]12)c1csc(N)n1
A: 41

Q: Data request, read-out Hepatotoxicity (moderate), for CN(C)CC/C=C1\c2ccccc2CSc2ccccc21 [DOTHIEPIN]
A: 1

Q: Data request, read-out Hepatotoxicity (moderate), for CO/N=C(\C(=O)N[C@@H]1C(=O)N2C(C(=O)[O-])=C(C[n+]3cccc4c3CCC4)CS[C@H]12)c1csc(N)n1
A: 62

Q: Data request, read-out Hepatotoxicity (moderate), for CN1CCN2c3ccccc3Cc3ccccc3C2C1 (configuration not stated)
A: 3

Q: Data request, read-out Hepatotoxicity (moderate), for CCC1(c2ccc(N)cc2)CCC(=O)NC1=O (configuration not stated) [AMINOGLUTETHIMIDE]
A: 4

Q: Data request, read-out Hepatotoxicity (moderate), for COC(=O)C1=C(C)NC(C)=C(C(=O)OC(C)C)C1c1cccc2nonc12 (configuration not stated)
A: 6

Q: Data request, read-out Hepatotoxicity (moderate), for CN[C@@H]1[C@@H](O)[C@@H](O[C@@H]2[C@@H](O)[C@H](O[C@H]3O[C@H](CN)[C@@H](O)[C@H](O)[C@H]3O)[C@@H](N)C[C@H]2NC(=O)[C@@H](O)CN)OC[C@]1(C)O
A: 22

Q: Data request, read-out Hepatotoxicity (moderate), for CNC(=C[N+](=O)[O-])NCCSCc1csc(CN(C)C)n1
A: 3

Q: Data request, read-out Hepatotoxicity (moderate), for CC#CCC(C)[C@H](O)/C=C/[C@@H]1[C@H]2c3cccc(CCCC(=O)O)c3O[C@H]2C[C@H]1O (some centres not stated)
A: 1

Q: Data request, read-out Hepatotoxicity (moderate), for C[C@](N)(Cc1ccc(O)c(O)c1)C(=O)O
A: 10

Q: Data request, read-out Hepatotoxicity (moderate), for NC[C@@H]1CC[C@@H](N)[C@@H](O[C@H]2[C@H](O)[C@@H](O[C@H]3O[C@H](CO)[C@@H](O)[C@H](N)[C@H]3O)[C@H](N)C[C@@H]2N)O1
A: 1

Q: Data request, read-out Hepatotoxicity (moderate), for O=C(O)c1cc(/N=N/c2ccc(O)c(C(=O)O)c2)ccc1O
A: 1

Q: Data request, read-out Hepatotoxicity (moderate), for OC(c1cc(C(F)(F)F)nc2c(C(F)(F)F)cccc12)C1CCCCN1 (configuration not stated)
A: 5

Q: Data request, read-out Hepatotoxicity (moderate), for CC[C@H]1OC(=O)[C@H](C)[C@@H](O[C@H]2C[C@@](C)(OC)[C@@H](O)[C@H](C)O2)[C@H](C)[C@@H](O[C@@H]2O[C@H](C)C[C@H](N(C)C)[C@H]2O)[C@](C)(OC)C[C@@H](C)C(=O)[C@H](C)[C@@H](O)[C@]1(C)O
A: 47

Q: Data request, read-out Hepatotoxicity (moderate), for Cc1ccccc1N1C(=O)c2cc(S(N)(=O)=O)c(Cl)cc2NC1C (configuration not stated)
A: 0
